System: K562
Experiment: NCI tumour cell line growth inhibition, 48 h
Active and inactive are the calls of the source. Rule as the data show it: active = GI50 up to about 1.1 µM and inactive = higher.
Entry note: the call must match one of active, inactive

Record excerpt, results attached:
>>> print(df.to_string())
                                   molecule  classification
0  C[C@H](C/C=C/C(C)(C)O)[C@H]1CC[C@@]2(C)[C@@H]3CC[C@H]4C(C)(C)[C@@H](O)CC[C@@]45C[C@@]35CC[C@]12C        inactive
1  O=[N+]([O-])c1ccc(N2N=C(c3c(O)ccc4ccccc34)CC2c2ccc(Cl)cc2)c([N+](=O)[O-])c1 (stereo not drawn)        inactive

Shifting focus to the molecule that follows.
Check the results log: what was the call for COc1ccc2[nH]c3ccc4cc[n+](CCN5CCC(C6CCN(CC[n+]7ccc8ccc9[nH]c%10ccc(OC)cc%10c9c8c7)CC6)CC5)cc4c3c2c1 ?
active

* * *

Tested on: LXFL 529
Assay: NCI tumour cell line growth inhibition, 48 h
Activity calls are given as the source filed them. Rule as the data show it: active = GI50 up to about 1.1 µM and inactive = higher.
reportedEndpoint: GI50

Check out these entries, answers already filled in.
>>> print(df.to_string())
                                   molecule  experimentalsystem       observedvalue
0  COc1cc([C@@H]2c3cc4c(cc3[C@@H](OC(=O)c3ccc(N)cc3)C3COC(=O)[C@@H]32)OCO4)cc(OC)c1O (stereo partly drawn)            LXFL 529  14.8 µM (inactive)
1          CC(=O)N1CCC(=O)/C(=C/c2ccccc2)C1            LXFL 529  21.9 µM (inactive)

What GI50 value was documented for this molecule, N#C/C(=C\c1ccc(O)cc1O)C(N)=O ?
> 100 µM (inactive)

* * *

Tested on: DU-145
Test: NCI tumour cell line growth inhibition, 48 h
The source made the active and inactive calls. Rule as the data show it: active = GI50 up to about 1.1 µM and inactive = higher.
# GI50 values compiled below

What GI50 value was documented for this molecule, O=C1CCCCCCCCCCC1CN1CCCC1 (configuration not stated) ?
29.9 µM (inactive)

What GI50 value was documented for this molecule, Brc1ccc(/C(N=N/C(=N\Sc2ccccc2)c2ccc(Br)cc2)=N/Sc2ccccc2)cc1 ?
> 100 µM (inactive)

What GI50 value was documented for this molecule, O=C(CC(c1ccccc1)C(C(=O)c1ccncc1)C(CC(=O)c1ccncc1)c1ccccc1)c1ccncc1 (configuration not stated) ?
96.6 µM (inactive)

What GI50 value was documented for this molecule, O=C(CCc1ccc(O)c(O)c1)NCCc1ccccc1 ?
> 88.1 µM (inactive)

* * *

Tested on: KM12
Test: NCI tumour cell line growth inhibition, 48 h
Activity calls are given as the source filed them. Cut-off read from the data, not from the text of the source: active = GI50 up to about 1.1 µM and inactive = higher.
Entry note: the call must match one of Y = active, N = inactive

Record excerpt, results attached:
>>> df
                                   molecule  classification
0  C/C(=N\NC(=S)N1CCN(c2ccccn2)CC1)c1cccc(C)n1               N
1      C=CCn1c(=O)c(-c2ccccc2)c(O)c2ccccc21               N
2                  Cc1c2ccccc2cc2cccc[n+]12               N

Check the results log: what was the call for N#C/N=C(/N)NCN/C(N)=N\C#N ?
N

Check the results log: what was the call for CC(CN1NC12CCCC2)N1NC12CCCC2 (stereo unspecified) ?
N

Check the results log: what was the call for Cn1cnc([N+](=O)[O-])c1Sc1nnc(-c2ccc(Cl)cc2)n1C ?
N

Check the results log: what was the call for COC(=O)/C(C#N)=C1\CCC(OC)N1 (stereo unspecified) ?
N

Check the results log: what was the call for CC1=CCP(C(F)(F)F)P(C(F)(F)F)C1 (stereo unspecified) ?
N

Check the results log: what was the call for CC(C)=CCC/C(C)=C/CC/C(C)=C/C1CCC(=O)C1(C)C (stereo unspecified) ?
N

Check the results log: what was the call for CCCCCC(=O)OC[n+]1cccc(-c2c(COC(=O)NC(C)C)c(COC(=O)NC(C)C)c3n2CCC3)c1 ?
N

Check the results log: what was the call for CCCC(=O)Nc1cc(/C=C/C(=O)N2CC(CCl)c3c2cc(OCc2ccccc2)c2[nH]cc(C)c32)n(C)c1 (stereo unspecified) ?
Y

* * *

# GI50 values compiled below
System: IGROV-1
Test: NCI tumour cell line growth inhibition, 48 h
Calls of active or inactive are those of the source. Rule as the data show it: active = GI50 up to about 1.1 µM and inactive = higher.

Check out these entries, answers already filled in.
>>> print(df.to_string())
                                   compound  reportedendpoint        observedvalue
0  COc1ccc(COC2CC(OC)OC(C)C2OC(=O)c2ccccc2)cc1 (stereo unspecified)              GI50   90.4 µM (inactive)
1  Cc1cc(S(=O)(=O)O)c(NC(=O)C(=O)Cc2cc(=O)oc3cc(O)ccc23)cc1Cl              GI50  > 100 µM (inactive)
2  O=C(O)c1cc2c3c(c1)[C@H]1C=CC[C@H]1CN3CC1CC=CC21 (stereo partly specified)              GI50  > 100 µM (inactive)
3  Cc1ccccc1NC(=O)Cc1csc2[n+]1C(=O)/C(=C/c1ccc([N+](=O)[O-])cc1)S2              GI50   25.7 µM (inactive)
4  CCC1CN2CCc3cc(OC)c(OC)cc3C2CC1CC1c2cc(OC)c(OC)cc2CCN1C(=O)CNC(=O)OC(C)(C)C (stereo unspecified)              GI50   19.5 µM (inactive)
5       N#C/C(C(=O)Nc1ccccc1)=C(/N)N1CCCCC1              GI50     91 µM (inactive)
6  CCCCCCCCCCC(C(=O)O)C1(C(=O)O)CCC(=O)O1 (stereo unspecified)              GI50  > 100 µM (inactive)
7  Cc1cc(NC(=O)NC(=O)c2ccccc2NC(=O)CN(C)C)ccc1Oc1ncc(Br)cn1              GI50   6.27 µM (inactive)

What GI50 value was documented for this compound, O=c1c(Cl)c(Cl)cnn1CCCl ?
1.95 µM (inactive)

What GI50 value was documented for this compound, C=C1C(=O)C[C@@]23CCC[C@@]12CC(O)C3 (stereo partly specified) ?
3.93 µM (inactive)

What GI50 value was documented for this compound, CN1COc2c(n(C)c(=O)[nH]c2=O)C1 ?
> 100 µM (inactive)

What GI50 value was documented for this compound, Cc1cc(N)ccc1/N=N\c1ccc(S(=O)(=O)CCOS(=O)(=O)O)cc1 ?
0.713 µM (active)

What GI50 value was documented for this compound, Cc1cc(Br)cc(C)c1NC(=O)C(=O)C(C(=O)c1ccc2ccccc2c1)C1OC(=O)c2ccccc21 (stereo unspecified) ?
18.2 µM (inactive)

* * *

System: HCC 2998
Test: NCI tumour cell line growth inhibition, 48 h
Calls of active or inactive are those of the source. Cut-off read from the data, not from the text of the source: active = GI50 up to about 1.1 µM and inactive = higher.
reportedEndpoint: GI50

Check out these entries, answers already filled in.
>>> print(df.to_string())
                                   compound        observedvalue
0  Cn1cc(C(=O)c2ccccc2)cc(C(=O)c2ccccc2)c1=O  > 100 µM (inactive)
1  CCOP(=O)(C/C(=N/NC(C)(C)C)C(=O)Nc1nc2ccc(C)cc2s1)OCC  > 100 µM (inactive)
2  CCCCC(C)C1CCC2(C)C=CC(=O)C(C)=C2C1O (stereo unspecified)  > 100 µM (inactive)
3  COc1cccc(C2CC23C(=O)NC(=O)NC3=O)c1 (stereo unspecified)  > 100 µM (inactive)
4    Oc1ccc2ccccc2c1/C=N/Cc1c(O)ccc2ccccc12   42.2 µM (inactive)
5  COc1ccc(COC2CC(OC)OC(C)C2OC(=O)c2ccccc2)cc1 (stereo unspecified)   43.1 µM (inactive)
6  CCOP(=O)(OCC)C1=NC=CC=CC1n1c(-c2ccccc2)nn(CC)c1=O (stereo unspecified)  > 100 µM (inactive)
7  Cc1c(NC(=O)CSC(=S)N(C)C)c(=O)n(-c2ccccc2)n1C  > 100 µM (inactive)

What GI50 value was documented for this compound, CCCCCC/C(CC(=O)CCC(=O)NCCc1ccccc1)=N\NC(=O)c1ccc2ccccc2c1O ?
53.3 µM (inactive)

What GI50 value was documented for this compound, CC[S+]([O-])C(=O)N(O)c1ccc(Cl)cc1 (stereo unspecified) ?
43.3 µM (inactive)

What GI50 value was documented for this compound, CCCCCN(CCCCC)CC(C)(C)C(O)c1ccc(OC)c2ccccc12 (stereo unspecified) ?
3.52 µM (inactive)

* * *

Test system: IGROV-1
Experiment: NCI tumour cell line growth inhibition, 48 h
The source made the active and inactive calls. Rule as the data show it: active = GI50 up to about 1.1 µM and inactive = higher.
Entry note: the call must match one of label 1 for active, label 0 for inactive

Check the results log: what was the call for O=[PH]1c2ccccc2Nc2ccccc21 ?
label 0

* * *

Tested on: OVCAR-8
Assay: NCI tumour cell line growth inhibition, 48 h
The source made the active and inactive calls. Cut-off read from the data, not from the text of the source: active = GI50 up to about 1.1 µM and inactive = higher.
# GI50 values compiled below

Check out these entries, answers already filled in.
In [3]: df
Out[3]:
                                   molecule        observedvalue
0  COc1ccc(/C=C/c2cc(OC)c(OC)c(OC)c2)cc1O[Si](C)(C)C(C)(C)C   2.74 µM (inactive)
1                 O=[PH]1c2ccccc2Nc2ccccc21  > 100 µM (inactive)
2  CN(C)c1ccc(/N=C2/NC(=N\c3ccccc3)/C(=N/c3ccccc3)S2)cc1   66.5 µM (inactive)
3  Cn1c2ccccc2c2c(-c3ccccc3)cc3c(c21)C(=O)C=CC3=O   2.07 µM (inactive)

What GI50 value was documented for this molecule, O=C(c1ccccc1)n1cc(/C=C/[N+](=O)[O-])c2ccccc21 ?
35.6 µM (inactive)

What GI50 value was documented for this molecule, COC(O)C(=O)c1ccc2c(c1)CC1(C2)Cc2cc3c(cc2C1=O)CCC3 (stereo not given) ?
> 10 µM (inactive)

What GI50 value was documented for this molecule, Cc1ccc(-c2c(C#N)c(-c3ccc([N+](=O)[O-])cc3)c(C#N)c(=O)n2NS(=O)(=O)c2ccccc2)cc1 ?
31.6 µM (inactive)

What GI50 value was documented for this molecule, Cc1ccc(S(=O)(=O)N2CCCN(S(=O)(=O)c3ccc(C)cc3)CCN(S(=O)(=O)c3ccc(C)cc3)CCCSCC2)cc1 ?
> 100 µM (inactive)

What GI50 value was documented for this molecule, COC(=O)/C=C/C1C(C(=O)OC)C2(C(=O)OC)CCC1(C(=O)OC)N2 (stereo not given) ?
> 100 µM (inactive)

What GI50 value was documented for this molecule, Cc1ccccc1NC(=O)Cc1csc2[n+]1C(=O)/C(=C/c1ccc([N+](=O)[O-])cc1)S2 ?
24.8 µM (inactive)

What GI50 value was documented for this molecule, CCNC(=O)NNc1ncnc2c1c(-c1ccc(Cl)cc1)cn2-c1ccc(C)cc1 ?
15 µM (inactive)

What GI50 value was documented for this molecule, CCOC(=O)c1ccc(N[C@@H]2c3cc4c(cc3C(c3cc(OC)c(O)c(OC)c3)[C@H]3C(=O)OCC32)OCO4)cc1O (stereo not given in full) ?
1.77 µM (inactive)

Measured values drawn from ChEMBL document CHEMBL1201862 for this set.
